# PROCEDURE DETAILS: Acute toxicity after oral administration
# EXPERIMENTAL PARAMETERS: rat, in vivo; 24 hours after oral administration, six-week old male rats
MEASURE NAME: LD50 at 24 h

In: Reported LD50 at 24 h for O=C1c2ccccc2OC=C(Cl)N1CCCCN1CC=C(c2ncccn2)CC1 : what is it?
Out: ≥ 100 mg/kg

---

# SYSTEM UNDER TEST: dopamine D2 receptor (Rattus norvegicus)
# Construct: the corpus striatums excised from male Wistar rats were homogenized
# PROCEDURE DETAILS: Affinity with dopamine D2 receptor, [3H]Raclopride binding
# EXPERIMENTAL PARAMETERS: 1.0 nM [3H]Raclopride, rat corpus striatum preparation, 25° C., 60 minutes
Response field label: string, one of class 1 (IC50 strictly below 300 nM) or class 0.

Would you please look over these solved cases?
CC1=COc2ccccc2C(=O)N1CCCCN1CC=C(c2ncccn2)CC1 [Example 53] ... class 0
O=C1c2ccccc2OC=C(Cl)N1CCCCN1CC=C(c2ncccn2)CC1 [Example 56] ... class 0
CC1=COc2ccc(F)cc2C(=O)N1CCCCN1CCN(c2cccc(Cl)n2)CC1 [Example 41] ... class 1

// next entry
In: Is IC50 of COc1ccc2c(c1)OC=C(Cl)N(CCCCN1CC=C(c3ncccn3)CC1)C2=O [Example 61] strictly below 300 nM?
Out: class 1

---

Reported pIC50 values for a set of molecules
# SYSTEM UNDER TEST: dopamine D2 receptor (Rattus norvegicus, UniProt P61169)
# Construct: the corpus striatums excised from male Wistar rats were homogenized
# Sequence (P61169 whole entry): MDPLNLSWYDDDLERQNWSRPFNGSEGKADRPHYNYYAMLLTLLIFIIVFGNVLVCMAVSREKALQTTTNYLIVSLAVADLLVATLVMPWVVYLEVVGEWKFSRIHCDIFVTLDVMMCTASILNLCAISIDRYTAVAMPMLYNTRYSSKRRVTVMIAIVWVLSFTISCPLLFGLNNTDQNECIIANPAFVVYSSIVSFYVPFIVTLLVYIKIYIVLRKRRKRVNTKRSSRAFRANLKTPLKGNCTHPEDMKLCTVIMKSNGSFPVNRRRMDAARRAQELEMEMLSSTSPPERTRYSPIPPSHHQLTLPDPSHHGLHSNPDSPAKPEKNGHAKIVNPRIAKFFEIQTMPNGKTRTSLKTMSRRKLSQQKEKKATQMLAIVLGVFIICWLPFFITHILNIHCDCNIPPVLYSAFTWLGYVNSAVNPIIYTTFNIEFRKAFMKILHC
# PROCEDURE DETAILS: Affinity with dopamine D2 receptor, [3H]Raclopride binding
# EXPERIMENTAL PARAMETERS: 1.0 nM [3H]Raclopride, rat corpus striatum preparation, 25° C., 60 minutes
The meaning of pIC50 here: minus log10 of the concentration in molar units.

These recorded examples may help you get a feel for the data.
O=C1c2ccccc2OC=C(Cl)N1CCCCN1CCN(c2ccccn2)CC1 [Example 46] ... 7.29
O=C1c2ccc(Cl)cc2OC=C(Cl)N1CCCCN1CCC(c2ccccn2)CC1 [Example 67] ... 6.44

--- query ---
In: What does the record list as pIC50 for O=C1c2ccc(Cl)cc2OC=C(Cl)N1CCCCN1CC=C(c2ccccn2)CC1 [Example 66] ?
Out: 6.89

---

# Test system: male Wistar rats
# PROCEDURE DETAILS: Anticonflict action, NaCl-Lick conflict method
# Type: in vivo
# EXPERIMENTAL PARAMETERS: Rattus norvegicus, po, 1 hour before the test; number of licks in 5 minutes of 2% saline; rats deprived of water for 48 hours; read-out: Minimum effective dosage
Catalogue of molecules with associated minimal effective dose
Kindly answer with a numeric value in mg/kg, unit omitted.

O=C1c2ccccc2OC=C(Cl)N1CCCCN1CCN(c2ccccn2)CC1 [Example 46] ... 10
CC1=COc2ccccc2C(=O)N1CCCCN1CCN(c2ncccn2)CC1 [Example 34] ... 30
CC1=COc2ccc(F)cc2C(=O)N1CCCCN1CCN(c2cccc(Cl)n2)CC1 [Example 41] ... 10
O=C1c2ccc(Cl)cc2OC=C(Cl)N1CCCCN1CCN(c2ccccn2)CC1 [Example 48] ... 30

In: Consider the molecule CC1=COc2ccccc2C(=O)N1CCCCN1CCC(c2ncccn2)CC1 [Example 54] and give its measured minimal effective dose.
Out: 10

---

# D2/5-HT1A listing for each entry below
# SYSTEM UNDER TEST: serotonin 5-HT1A receptor (Rattus norvegicus)
# Construct: the hippocampuses extracted from male Wistar rats were homogenized; from tissue; host or cells: rat hippocampus membrane homogenate
# Sequence (P19327 1-422): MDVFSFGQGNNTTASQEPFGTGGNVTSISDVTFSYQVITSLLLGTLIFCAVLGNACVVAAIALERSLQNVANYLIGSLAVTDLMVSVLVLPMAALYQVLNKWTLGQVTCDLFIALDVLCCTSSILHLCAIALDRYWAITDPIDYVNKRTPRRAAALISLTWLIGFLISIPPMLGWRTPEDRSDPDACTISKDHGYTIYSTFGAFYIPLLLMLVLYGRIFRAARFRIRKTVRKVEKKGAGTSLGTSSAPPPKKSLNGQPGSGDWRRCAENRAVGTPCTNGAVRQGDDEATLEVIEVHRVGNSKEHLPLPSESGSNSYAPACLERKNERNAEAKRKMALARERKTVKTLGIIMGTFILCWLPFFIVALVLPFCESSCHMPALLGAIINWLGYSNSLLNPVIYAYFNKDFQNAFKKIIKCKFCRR
# PROCEDURE DETAILS: Affinity with serotonin receptor, [3H]8-OH-DPAT binding
# Design: species or system male Wistar rats
# EXPERIMENTAL PARAMETERS: ratio of IC50 (D2) to IC50 (5-HT1A)
Form rule: numeric answer, no unit written next to it.

Solved cases below.
COc1ccc2c(c1)OC=C(Cl)N(CCCCN1CC=C(c3ncccn3)CC1)C2=O [Example 61] ... 376
O=C1c2ccc(Cl)cc2OC=C(Cl)N1CCCCN1CC=C(c2ncccn2)CC1 [Example 59] ... 525
CC1=COc2ccc(F)cc2C(=O)N1CCCCN1CC=C(c2ncccn2)CC1 [Example 55] ... 96
CC1=COc2ccccc2C(=O)N1CCCCN1CCN(c2cccc(Cl)n2)CC1 [Example 35] ... 196

In: API: value(readout= D2/5-HT1A, system= serotonin 5-HT1A receptor (Rattus norvegicus), query= O=C1c2ccccc2OC=C(Cl)N1CCCCN1CC=C(c2ncccn2)CC1 [Example 56] )
Out: 358

In: Lab note: need D2/5-HT1A with serotonin 5-HT1A receptor (Rattus norvegicus) for entry O=C1c2ccc(Cl)cc2OC=C(Cl)N1CCCCN1CCC(c2ccccn2)CC1 [Example 67] , please look it up.
Out: 816

---

# SYSTEM UNDER TEST: dopamine D2 receptor (Rattus norvegicus)
# Construct: the corpus striatums excised from male Wistar rats were homogenized; from tissue; host or cells: rat corpus striatum membrane homogenate
# PROCEDURE DETAILS: Affinity with dopamine D2 receptor, [3H]Raclopride binding
# Parameters: species or system male Wistar rats
# EXPERIMENTAL PARAMETERS: 1.0 nM [3H]Raclopride, rat corpus striatum preparation, 25° C., 60 minutes
Classification by IC50 follows these ranges: low class (below 0.3 µM), middle class (0.3 µM to below 1 µM), high class (1 µM or more)

Example results:
Cc1ccc2c(c1)C(=O)N(CCCCN1CCN(c3ncccn3)CC1)C(Cl)=CO2 ... middle class
CC1=COc2ccc(C)cc2C(=O)N1CCCCN1CC=C(c2ccccn2)CC1 ... middle class
O=C1c2ccccc2OC=C(Cl)N1CCCCN1CCC(c2ncccn2)CC1 ... high class

In: Class (by measured IC50) for O=C1c2ccc(Cl)cc2OC=C(Cl)N1CCCCN1CCN(c2ccccn2)CC1
Out: low class

In: Hello team, could you let me know which band the following compound falls into: O=C1c2ccccc2OC=C(Cl)N1CCCCN1CC=C(c2ccccn2)CC1
Out: low class

---

# SYSTEM UNDER TEST: serotonin 5-HT1A receptor (Rattus norvegicus)
# Construct: the hippocampuses extracted from male Wistar rats were homogenized; from tissue; host or cells: rat hippocampus membrane homogenate
# PROCEDURE DETAILS: Affinity with serotonin receptor, [3H]8-OH-DPAT binding
# Parameters: species or system male Wistar rats
MEASURE NAME: pIC50
FYI, pIC50 means -log10 of a concentration in mol per litre.

Examples with answers:
COc1ccc2c(c1)OC=C(Cl)N(CCCCN1CC=C(c3ncccn3)CC1)C2=O ... 9.17
O=C1c2ccc(Cl)cc2OC=C(Cl)N1CCCCN1CC=C(c2ncccn2)CC1 ... 9.19
CC1=COc2ccccc2C(=O)N1CCCCN1CC=C(c2ncccn2)CC1 ... 7.96
O=C1c2ccc(Cl)cc2OC=C(Cl)N1CCCCN1CC=C(c2ccccn2)CC1 ... 9.24
CC1=COc2ccc(C)cc2C(=O)N1CCCCN1CC=C(c2ccccn2)CC1 ... 8.36

In: What pIC50 value was documented for this compound, CC1=COc2ccc(F)cc2C(=O)N1CCCCN1CC=C(c2ncccn2)CC1 ?
Out: 7.89

In: Item under review: O=C1c2ccccc2OC=C(Cl)N1CCCCN1CC=C(c2ncccn2)CC1 . Reported pIC50?
Out: 8.86

---

Listed here: items and their measured melting point.

CC1=COc2ccccc2C(=O)N1CCCCN1CCN(c2cccc(Cl)n2)CC1 ... 166 to 168 °C

In: Would you kindly share the measured melting point for CC1=COc2ccc(C)cc2C(=O)N1CCCCN1CCN(c2ncc(F)c(N)n2)CC1 ?
Out: 243 to 245 °C

In: For the compound O=C1c2ccccc2OC=CN1CCCCN1CCN(c2ccccn2)CC1 , what melting point is on record?
Out: 150 to 151 °C

In: Name the reported melting point value associated with the compound COc1ccccc1N1CCN(CCCCN2C(=O)c3ccc(C)cc3OC=C2C)CC1
Out: 88 to 90 °C

In: // lookup melting point for CC1=COc2cc(C)ccc2C(=O)N1CCCCN1CCN(c2cccc(C)c2)CC1
Out: 113 to 115 °C

In: State the recorded melting point for this entry: CC1=COc2ccccc2C(=O)N1CCCCN1CCN(c2ncccn2)CC1
Out: 141 to 142 °C

In: Report melting point for COc1ccc2c(c1)OC=CN(CCCCN1CCN(c3ncccn3)CC1)C2=O please.
Out: 156 to 158 °C
